- SYSTEM_TESTED: NEP from canine kidney (Canis lupus familiaris)
- Construct: determined using NEP from canine kidney; from tissue; host or cells: canine kidney
- TEST_SUMMARY: IC50 against NEP (canine kidney)
- Type: biochemical
- COND: NEP from canine kidney; read-out: IC50 against NEP
pIC50: −log10 of the molar value.
Quick reference for pIC50 among some molecules

# MOLECULE, pIC50
data = [
    ("O=C(O)CCC1(C(=O)NCCCc2cccc3ccccc23)CCCC1", 7.33),
    ("O=C(O)CCC1(C(=O)NCCCc2ccc3c(c2)CCO3)CCCC1", 8.52),
    ("CC(CCNC(=O)C1(CCC(=O)O)CCCC1)c1ccc2c(c1)CCO2 (centres unmarked)", 8.05),
    ("COCCC(CC1(C(=O)NC(C)COc2ccccc2Cl)CCCC1)C(=O)O (centres unmarked)", 7.66),
    ("COCC[C@H](CC1(C(=O)NCCCc2ccc3c(c2)OCCO3)CCCC1)C(=O)O", 7.54),
]

###

- SYSTEM_TESTED: NEP from canine kidney (Canis lupus familiaris, UniProt A0A8I3PBM8)
- Construct: determined using NEP from canine kidney; from tissue; host or cells: canine kidney
- Sequence (A0A8I3PBM8 1-749): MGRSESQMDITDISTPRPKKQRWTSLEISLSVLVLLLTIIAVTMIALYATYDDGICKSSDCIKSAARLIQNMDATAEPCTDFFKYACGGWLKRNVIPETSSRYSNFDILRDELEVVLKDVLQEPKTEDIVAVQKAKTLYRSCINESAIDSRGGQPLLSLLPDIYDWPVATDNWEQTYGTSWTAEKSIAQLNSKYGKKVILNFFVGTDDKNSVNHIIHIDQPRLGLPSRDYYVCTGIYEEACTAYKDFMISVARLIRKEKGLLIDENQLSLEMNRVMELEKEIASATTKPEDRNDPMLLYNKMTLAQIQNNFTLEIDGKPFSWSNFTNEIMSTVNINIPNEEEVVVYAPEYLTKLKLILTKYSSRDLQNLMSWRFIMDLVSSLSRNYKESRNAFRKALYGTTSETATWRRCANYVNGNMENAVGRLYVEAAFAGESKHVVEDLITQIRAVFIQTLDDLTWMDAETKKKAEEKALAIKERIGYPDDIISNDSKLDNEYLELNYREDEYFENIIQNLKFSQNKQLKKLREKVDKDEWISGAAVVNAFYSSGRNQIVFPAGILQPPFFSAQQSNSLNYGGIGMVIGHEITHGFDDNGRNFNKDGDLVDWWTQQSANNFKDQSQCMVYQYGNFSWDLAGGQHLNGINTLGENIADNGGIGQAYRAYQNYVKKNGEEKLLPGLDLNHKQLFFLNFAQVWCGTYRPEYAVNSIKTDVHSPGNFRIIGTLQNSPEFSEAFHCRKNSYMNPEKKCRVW
- TEST_SUMMARY: IC50 against NEP (canine kidney)
- Format: biochemical
READOUT_LABEL: IC50 (nM)

# COMPOUND, UNIT_DESCRIPTOR, OBSERVED_VALUE
rows = [
    ("COCCC(CC1(C(=O)NCCCc2ccc(F)cc2)CCCC1)C(=O)O (stereo not shown)", "nM", 4),
]
